Source listed as paper PMC5700166.

target: GST-Hu-p50 (Homo sapiens, UniProt P19838 7-356); assay: protein-binding microarray (PBM); PBM: ~300 nM protein, 6 mM HEPES pH 7.8, 80 mM KCl, 0.5 mM EDTA, 0.5 mM EGTA, 6% glycerol, 35 ng/ul poly-dIdC, 1% milk, 1 h, room temperature; high values mean tight binding; settings: dsDNA, one strand shown
Sequence (P19838 7-356): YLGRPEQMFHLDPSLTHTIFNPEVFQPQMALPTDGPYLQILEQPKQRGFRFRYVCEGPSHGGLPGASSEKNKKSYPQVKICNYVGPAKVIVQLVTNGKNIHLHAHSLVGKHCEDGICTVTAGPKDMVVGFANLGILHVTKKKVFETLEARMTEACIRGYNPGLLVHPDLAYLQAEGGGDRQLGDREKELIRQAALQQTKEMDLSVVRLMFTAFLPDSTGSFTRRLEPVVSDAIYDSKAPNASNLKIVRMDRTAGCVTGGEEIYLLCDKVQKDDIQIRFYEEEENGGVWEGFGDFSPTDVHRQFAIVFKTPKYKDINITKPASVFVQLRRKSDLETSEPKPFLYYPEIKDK
value-type: binding signal (z-score)
A number alone suffices; assume z-score.

CCGATTAACATCAGGGGATCACCTGATGTTAATCGGGTCTTGATTCGCTTGACGCTGCTG : 4.71
CCGATTAACATCAATATCCCCCATGATGTTAATCGGGTCTTGATTCGCTTGACGCTGCTG : 5.2
CCGATTAACATCAGGGGGAACAATGATGTTAATCGGGTCTTGATTCGCTTGACGCTGCTG : 5.11

Here is the next item to consider.
Problem: Give binding signal (GST-Hu-p50 (Homo sapiens, UniProt P19838 7-356)) of the following sequence: CCGATTAACATCAGAAACACCCCTGATGTTAATCGGGTCTTGATTCGCTTGACGCTGCTG
Result: 3.61

* * *

Biological target: GST-Co-NF-kB (Capsaspora owczarzaki, UniProt F1ARL5 200-546)
Sequence: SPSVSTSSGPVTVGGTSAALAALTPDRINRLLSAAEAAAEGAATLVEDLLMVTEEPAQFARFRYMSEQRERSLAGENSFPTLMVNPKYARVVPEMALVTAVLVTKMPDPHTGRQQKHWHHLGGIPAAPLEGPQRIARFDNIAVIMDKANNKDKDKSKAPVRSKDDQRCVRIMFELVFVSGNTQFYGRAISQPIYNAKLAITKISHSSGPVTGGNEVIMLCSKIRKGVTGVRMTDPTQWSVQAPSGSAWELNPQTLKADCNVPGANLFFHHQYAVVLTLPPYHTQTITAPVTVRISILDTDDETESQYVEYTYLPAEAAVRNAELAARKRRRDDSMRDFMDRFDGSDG
Experiment: protein-binding microarray (PBM); PBM: ~300 nM protein, 6 mM HEPES pH 7.8, 80 mM KCl, 0.5 mM EDTA, 0.5 mM EGTA, 6% glycerol, 35 ng/ul poly-dIdC, 1% milk, 1 h, room temperature; high values mean tight binding
Conditions: dsDNA, one strand shown
value-type: binding signal (z-score)
A number alone suffices; assume z-score.

CCGATTAACATCACGGGGAATTCTGATGTTAATCGGGTCTTGATTCGCTTGACGCTGCTG : 8.83
CCGATTAACATCAGGGGGAGTGATGATGTTAATCGGGTCTTGATTCGCTTGACGCTGCTG : 3.71
CCGATTAACATCAGGGGGGGCTATGATGTTAATCGGGTCTTGATTCGCTTGACGCTGCTG : 5.06

Problem: State the recorded binding signal for this entry: CCGATTAACATCAGGGGAAAGAATGATGTTAATCGGGTCTTGATTCGCTTGACGCTGCTG
Result: 8.25

Problem: State the recorded binding signal for this entry: CCGATTAACATCACATATTCCCCTGATGTTAATCGGGTCTTGATTCGCTTGACGCTGCTG
Result: 7.39

Problem: State the recorded binding signal for this entry: CCGATTAACATCAGGAGAACCCCTGATGTTAATCGGGTCTTGATTCGCTTGACGCTGCTG
Result: 1.26

Problem: State the recorded binding signal for this entry: CCGATTAACATCAGGGGGATGCATGATGTTAATCGGGTCTTGATTCGCTTGACGCTGCTG
Result: 4.12

Problem: State the recorded binding signal for this entry: CCGATTAACATCATGGGGGGGAATGATGTTAATCGGGTCTTGATTCGCTTGACGCTGCTG
Result: 8.77

* * *

Below: a set of entries, each annotated with reported binding signal.
Molecular target: GST-Dm-Relish (Drosophila melanogaster, UniProt Q94527 99-473)
Sequence: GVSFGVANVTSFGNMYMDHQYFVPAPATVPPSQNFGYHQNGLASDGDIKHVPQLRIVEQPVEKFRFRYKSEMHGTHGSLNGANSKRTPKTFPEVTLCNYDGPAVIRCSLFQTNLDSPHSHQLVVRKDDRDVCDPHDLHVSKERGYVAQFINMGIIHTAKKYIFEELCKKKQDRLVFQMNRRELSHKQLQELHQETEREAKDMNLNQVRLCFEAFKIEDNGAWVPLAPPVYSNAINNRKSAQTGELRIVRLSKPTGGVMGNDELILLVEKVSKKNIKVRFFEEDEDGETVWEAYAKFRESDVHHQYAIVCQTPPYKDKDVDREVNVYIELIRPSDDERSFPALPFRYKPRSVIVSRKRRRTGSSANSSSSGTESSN
Assay: protein-binding microarray (PBM); PBM: ~300 nM protein, 6 mM HEPES pH 7.8, 80 mM KCl, 0.5 mM EDTA, 0.5 mM EGTA, 6% glycerol, 35 ng/ul poly-dIdC, 1% milk, 1 h, room temperature; high values mean tight binding
Conditions: dsDNA, one strand shown
A number alone suffices; assume z-score.

Problem: State the recorded binding signal for this entry: CCGATTAACATCAAAAAACCGTTTGATGTTAATCGGGTCTTGATTCGCTTGACGCTGCTG
Result: 1.2

Problem: State the recorded binding signal for this entry: CCGATTAACATCAGGGGGGAACATGATGTTAATCGGGTCTTGATTCGCTTGACGCTGCTG
Result: 4.25

Problem: State the recorded binding signal for this entry: CCGATTAACATCAGGGGTTCACCTGATGTTAATCGGGTCTTGATTCGCTTGACGCTGCTG
Result: 8.89

Problem: State the recorded binding signal for this entry: CCGATTAACATCAAATAAACCCCTGATGTTAATCGGGTCTTGATTCGCTTGACGCTGCTG
Result: 6.13

Problem: State the recorded binding signal for this entry: CCGATTAACATCACCGAATTTGGTGATGTTAATCGGGTCTTGATTCGCTTGACGCTGCTG
Result: 1.44

Problem: State the recorded binding signal for this entry: CCGATTAACATCACCCCAGCCCCTGATGTTAATCGGGTCTTGATTCGCTTGACGCTGCTG
Result: 2.39

Problem: State the recorded binding signal for this entry: CCGATTAACATCAGGAGGCCCCCTGATGTTAATCGGGTCTTGATTCGCTTGACGCTGCTG
Result: 2.71

Problem: State the recorded binding signal for this entry: CCGATTAACATCAGAATTACCCATGATGTTAATCGGGTCTTGATTCGCTTGACGCTGCTG
Result: 1.97

Problem: State the recorded binding signal for this entry: CCGATTAACATCAGAAATTACCCTGATGTTAATCGGGTCTTGATTCGCTTGACGCTGCTG
Result: 4.39

Problem: State the recorded binding signal for this entry: CCGATTAACATCAGGAAATTACATGATGTTAATCGGGTCTTGATTCGCTTGACGCTGCTG
Result: 5.09

* * *

Target: GST-Co-NF-kB (Capsaspora owczarzaki, UniProt F1ARL5 200-546)
Sequence: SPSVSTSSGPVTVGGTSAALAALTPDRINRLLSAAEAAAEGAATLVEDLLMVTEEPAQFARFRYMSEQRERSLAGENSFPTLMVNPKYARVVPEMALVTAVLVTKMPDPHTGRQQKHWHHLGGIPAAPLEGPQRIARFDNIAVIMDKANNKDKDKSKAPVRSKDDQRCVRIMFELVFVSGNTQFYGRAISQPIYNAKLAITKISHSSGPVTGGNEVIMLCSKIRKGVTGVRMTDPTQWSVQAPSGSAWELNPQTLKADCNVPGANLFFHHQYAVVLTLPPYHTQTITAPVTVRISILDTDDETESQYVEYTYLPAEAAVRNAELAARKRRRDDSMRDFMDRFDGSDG
Assay: protein-binding microarray (PBM); PBM: ~300 nM protein, 6 mM HEPES pH 7.8, 80 mM KCl, 0.5 mM EDTA, 0.5 mM EGTA, 6% glycerol, 35 ng/ul poly-dIdC, 1% milk, 1 h, room temperature; high values mean tight binding
Details: dsDNA, one strand shown
Below: a set of entries, each annotated with reported binding signal.

Field: example entries. Status: answers known.
CCGATTAACATCACAGAAATCCCTGATGTTAATCGGGTCTTGATTCGCTTGACGCTGCTG : 1.43 z-score
CCGATTAACATCAGGGGGAACCCTGATGTTAATCGGGTCTTGATTCGCTTGACGCTGCTG : 8.49 z-score
CCGATTAACATCAGGGAATTAAATGATGTTAATCGGGTCTTGATTCGCTTGACGCTGCTG : 3.84 z-score

Here is the next item to consider.
Problem: State the recorded binding signal for this entry: CCGATTAACATCAGGGGGGGGACTGATGTTAATCGGGTCTTGATTCGCTTGACGCTGCTG
Result: 4.78 z-score

* * *

Target: GST-Aq-NF-kB (Amphimedon queenslandica, UniProt A9Y5G7 2-389)
Sequence: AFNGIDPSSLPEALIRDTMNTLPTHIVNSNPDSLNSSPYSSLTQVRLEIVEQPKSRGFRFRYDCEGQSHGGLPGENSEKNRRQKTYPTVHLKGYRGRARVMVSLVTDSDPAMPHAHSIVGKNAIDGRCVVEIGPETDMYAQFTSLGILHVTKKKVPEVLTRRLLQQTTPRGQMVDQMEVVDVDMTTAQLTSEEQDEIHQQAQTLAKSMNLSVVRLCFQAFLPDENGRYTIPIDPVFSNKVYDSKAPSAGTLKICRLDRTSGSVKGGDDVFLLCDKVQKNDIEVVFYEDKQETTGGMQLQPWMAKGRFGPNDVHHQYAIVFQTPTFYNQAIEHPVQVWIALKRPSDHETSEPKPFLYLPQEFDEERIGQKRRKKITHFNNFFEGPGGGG
Assay: protein-binding microarray (PBM); PBM: ~300 nM protein, 6 mM HEPES pH 7.8, 80 mM KCl, 0.5 mM EDTA, 0.5 mM EGTA, 6% glycerol, 35 ng/ul poly-dIdC, 1% milk, 1 h, room temperature; Ap Aiptasia and Nv Nematostella (sea anemones) / Co Capsaspora / Aq Amphimedon (sponge) / Dm Drosophila / Hu human; RHD is the Rel homology domain; high values mean tight binding
Details: dsDNA, one strand shown
// label = fulfilled if binding signal is not less than 4 z-score, otherwise not fulfilled

Previously resolved entries follow.
CCGATTAACATCACAACCCCCCCTGATGTTAATCGGGTCTTGATTCGCTTGACGCTGCTG : fulfilled
CCGATTAACATCAAGGAGTCCCCTGATGTTAATCGGGTCTTGATTCGCTTGACGCTGCTG : fulfilled
CCGATTAACATCAAAATTTCCACTGATGTTAATCGGGTCTTGATTCGCTTGACGCTGCTG : not fulfilled

Problem: Determine whether this sequence has binding signal no lower than 4 z-score: CCGATTAACATCAACCTCCCCCCTGATGTTAATCGGGTCTTGATTCGCTTGACGCTGCTG
Result: fulfilled

Problem: Determine whether this sequence has binding signal no lower than 4 z-score: CCGATTAACATCAAATATACCCATGATGTTAATCGGGTCTTGATTCGCTTGACGCTGCTG
Result: not fulfilled

Problem: Determine whether this sequence has binding signal no lower than 4 z-score: CCGATTAACATCAGGGGTAGGTTTGATGTTAATCGGGTCTTGATTCGCTTGACGCTGCTG
Result: not fulfilled

Problem: Determine whether this sequence has binding signal no lower than 4 z-score: CCGATTAACATCACCCACCCCCCTGATGTTAATCGGGTCTTGATTCGCTTGACGCTGCTG
Result: not fulfilled

Problem: Determine whether this sequence has binding signal no lower than 4 z-score: CCGATTAACATCAGGGGTACCCCTGATGTTAATCGGGTCTTGATTCGCTTGACGCTGCTG
Result: fulfilled
